System: HeLa (Cervical Carcinoma)
Experiment: combination Emax (second highest fraction inhibited in the dose matrix, 72 h); higher = more inhibition; extreme values may be limits of the assay
I'd appreciate it if you could supply combination Emax values for the items below.

Summary line: COc1nnc2ccc(N3CCC(c4ccc(OCCN5CCN(C)C(=O)[C@H]5C)cc4)CC3)nn12 [AZD5153] + CCN(CCO)CCCOc1ccc2c(Nc3cc(CC(=O)Nc4cccc(F)c4)[nH]n3)ncnc2c1 [AZD2811] (first compound max 1 µM, 7x7, partner max 1 µM) , HeLa (Cervical Carcinoma), reported combination Emax = 0.433

Item CN(CCO)CC[C@H](CSc1ccccc1)Nc1ccc(S(=O)(=O)NC(=O)c2ccc(N3CCC([C@@H](O)c4ccccc4-c4ccc(Cl)cc4)CC3)cc2)cc1S(=O)(=O)C(F)(F)F [AZD4320] + C=CCn1c(=O)c2cnc(Nc3ccc(N4CCN(C)CC4)cc3)nc2n1-c1cccc(C(C)(C)O)n1 [AZD1775] (first compound max 1 µM, partner max 1 µM) ; assay system HeLa (Cervical Carcinoma); combination Emax reported as 0.722

Query Cn1cnc2c(F)c(Nc3ccc(Br)cc3Cl)c(C(=O)NOCCO)cc21 [Selumetinib] + C[C@@H]1COCCN1C2=NC(=NC(=C2)C3(CC3)[S@](=N)(=O)C)C4=C5C=CNC5=NC=C4 [AZD6738] (first compound max 10 µM, 7x7, partner max 10 µM) on HeLa (Cervical Carcinoma); combination Emax returned: 0.486
